# F (APRIL) values compiled below
# assayed.system: T1, Murine APRIL (mouse, UniProt Q9D777 105-241, limits assumed)
# T1 sequence (looked up): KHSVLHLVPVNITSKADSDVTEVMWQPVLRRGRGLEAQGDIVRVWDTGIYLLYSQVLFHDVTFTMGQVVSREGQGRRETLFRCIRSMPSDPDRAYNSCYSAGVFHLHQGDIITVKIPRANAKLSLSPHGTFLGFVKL
# procedure.details: shotgun scan, phage display

- binder: "SLSCRKEQGKFYDHLLRDCISCASICGQHPKQCAYFCENKPR (receptor, phage library variant, format as m9) [TACI_d2 L108P]"
  bound.sign: "="
  F (APRIL): 1.4
- binder: "SLSCRKEQGKFYDHLLRDCISCASICGPHPKQCAYFCENKLR (receptor, phage library variant, format as m9) [TACI_d2 Q95P]"
  bound.sign: ">"
  F (APRIL): 39
- binder: "SLSCRKEQGKFYDHLLRDCISCASTCGQHPKQCAYFCENKLR (receptor, phage library variant, format as m9) [TACI_d2 I92T]"
  bound.sign: "="
  F (APRIL): 6
